Hello, the source for this data is ChEMBL document CHEMBL1150678, in case you need it.

Property: EC50; scope: individual compounds
System: HCT-15
Assay: Cytotoxicity against human HCT15 cells
Format: functional
Settings: read-out: ED50 (the source's name)
All answers are understood in µg/mL, so give the number only.

C/C(=C\[C@@H](C)[C@H]1C[C@@H](O)[C@H]2[C@@H]3C[C@H](O)[C@H]4C[C@@H](O)CC[C@]4(C)[C@H]3CC[C@@]21C)[C@H](C)[C@@H](C)CO
12.5
C=C(CC[C@@H](C)[C@H]1C[C@H](O)[C@H]2[C@@H]3C[C@@H](O)[C@H]4C[C@@H](O)CC[C@]4(C)[C@H]3CC[C@@]21C)[C@H](C)CO
4.2

API: the following record is the query input.
Request: Param item = C=C(CC[C@@H](C)[C@H]1C[C@@H](O)[C@@H]2[C@]1(C)CC[C@@H]1[C@@]3(C)CC[C@H](O)[C@H](O)[C@@H]3[C@@H](O)C[C@]12O)[C@H](C)CO ; retrieve measured EC50.
Result: 4.5

* * *

Test system: Streptococcus pyogenes
Assay: Antimicrobial activity against Streptococcus pyogenes 77A isolate after 18 hrs
Assay type: functional
recorded.metric: MIC (µg/mL)

C/C(=C\[C@@H](C)[C@H]1C[C@@H](O)[C@H]2[C@@H]3C[C@H](O)[C@H]4C[C@@H](O)CC[C@]4(C)[C@H]3CC[C@@]21C)[C@H](C)[C@@H](C)CO
25
C[C@@H](O)[C@H]1C(=O)N2C(C(=O)O)=C(S[C@@H]3CN[C@H](C(=O)N(C)C)C3)[C@H](C)[C@H]12
0.004
C/C(=C\[C@@H](C)[C@H]1C[C@@H](O)[C@@H]2[C@]1(C)CC[C@@H]1[C@@]3(C)CC[C@H](O)C[C@@H]3[C@@H](O)C[C@]12O)[C@H](C)[C@@H](C)CO
25
CC(C)[C@@H](O)CC[C@@H](C)[C@H]1C[C@@H](O)[C@H]2[C@@H]3C[C@H](O)[C@H]4C[C@@H](O)CC[C@]4(C)[C@H]3CC[C@@]21C
25

* * *

System: SK-MEL-2
Assay: Cytotoxicity against human SK-MEL-2 cells
Assay type: functional
Conditions: read-out: ED50 (the source's name)
Property: EC50; scope: individual compounds
All answers are understood in µg/mL, so give the number only.

Worked cases, EC50 given:
C=C(CC[C@@H](C)[C@H]1C[C@H](O)[C@H]2[C@@H]3C[C@@H](O)[C@H]4C[C@@H](O)CC[C@]4(C)[C@H]3CC[C@@]21C)[C@H](C)CO
4.1
CC(/C=C/[C@@H](C)[C@H]1C[C@@H](O)[C@H]2[C@@H]3C[C@H](O)[C@H]4C(O)[C@@H](O)CC[C@]4(C)[C@H]3CC[C@@]21C)CCO (some centres undefined)
4.3
CC(C)[C@@H](O)CC[C@@H](C)[C@H]1C[C@@H](O)[C@H]2[C@@H]3C[C@H](O)[C@H]4C[C@@H](O)CC[C@]4(C)[C@H]3CC[C@@]21C
3.8
C/C(=C\[C@@H](C)[C@H]1C[C@@H](O)[C@H]2[C@@H]3C[C@H](O)[C@H]4C[C@@H](O)CC[C@]4(C)[C@H]3CC[C@@]21C)[C@H](C)[C@@H](C)CO
7.1
C=C(CC[C@@H](C)[C@H]1C[C@@H](O)[C@H]2[C@@H]3C[C@H](O)[C@H]4[C@@H](O)[C@@H](O)CC[C@]4(C)[C@H]3CC[C@@]21C)[C@H](C)CO
4.9
C=C(CC[C@@H](C)[C@H]1C[C@@H](O)[C@H]2[C@@H]3C[C@H](O)[C@H]4C[C@@H](O)CC[C@]4(C)[C@H]3CC[C@@]21C)[C@H](C)CO
5.5

Request: Param item = CC(C)[C@@H](O)/C=C/[C@@H](C)[C@H]1C[C@@H](O)[C@H]2[C@@H]3C[C@H](O)[C@H]4C[C@@H](O)CC[C@]4(C)[C@H]3CC[C@@]21C ; retrieve measured EC50.
Result: 3.4

Request: And for C=C(CC[C@@H](C)[C@H]1C[C@@H](O)[C@@H]2[C@]1(C)CC[C@@H]1[C@@]3(C)CC[C@H](O)C[C@@H]3[C@@H](O)C[C@]12O)[C@H](C)CO ?
Result: 15.1

* * *

Property: EC50; scope: individual molecules
Test system: HCT-15
Experiment: Cytotoxicity against human HCT15 cells
Type: functional
Details: read-out: ED50 (the source's name)
All answers are understood in µg/mL, so give the number only.

Worked cases, EC50 given:
C=C(CC[C@@H](C)[C@H]1C[C@@H](O)[C@H]2[C@@H]3C[C@H](O)[C@H]4C[C@@H](O)CC[C@]4(C)[C@H]3CC[C@@]21C)[C@H](C)CO
9.6
CC(/C=C/[C@@H](C)[C@H]1C[C@@H](O)[C@H]2[C@@H]3C[C@H](O)[C@H]4C[C@@H](O)CC[C@]4(C)[C@H]3CC[C@@]21C)CO (stereo not given in full)
10.6
CC(C)[C@@H](O)/C=C/[C@@H](C)[C@H]1C[C@@H](O)[C@H]2[C@@H]3C[C@H](O)[C@H]4C[C@@H](O)CC[C@]4(C)[C@H]3CC[C@@]21C
4
C=C(CC[C@@H](C)[C@H]1C[C@@H](O)[C@H]2[C@@H]3C[C@H](O)[C@H]4[C@@H](O)[C@@H](O)CC[C@]4(C)[C@H]3CC[C@@]21C)[C@H](C)CO
6.4

Request: Param item = COc1cccc2c1C(=O)c1c(O)c3c(c(O)c1C2=O)C[C@@](O)(C(=O)CO)C[C@@H]3O[C@H]1C[C@H](N)[C@H](O)[C@H](C)O1 ; retrieve measured EC50.
Result: 0.03

* * *

System: Pseudomonas aeruginosa
Assay: Antimicrobial activity against Pseudomonas aeruginosa 1771M isolate after 18 hrs
Type: functional
recorded.metric: MIC (µg/mL)

CC(C)[C@@H](O)CC[C@@H](C)[C@H]1C[C@@H](O)[C@@H]2[C@]1(C)CC[C@@H]1[C@@]3(C)CC[C@H](O)C[C@@H]3[C@@H](O)C[C@]12O
25
C=C(CC[C@@H](C)[C@H]1C[C@@H](O)[C@H]2[C@@H]3C[C@H](O)[C@H]4[C@@H](O)[C@@H](O)CC[C@]4(C)[C@H]3CC[C@@]21C)[C@H](C)CO
25
CC(C)[C@@H](O)/C=C/[C@@H](C)[C@H]1C[C@@H](O)[C@H]2[C@@H]3C[C@H](O)[C@H]4C[C@@H](O)CC[C@]4(C)[C@H]3CC[C@@]21C
25

* * *

Test system: HCT-15
Experiment: Cytotoxicity against human HCT15 cells
Assay type: functional
Conditions: read-out: ED50 (the source's name)
recorded.metric: EC50 (µg/mL)
All answers are understood in µg/mL, so give the number only.

CC(C)[C@@H](O)CC[C@@H](C)[C@H]1C[C@@H](O)[C@H]2[C@@H]3C[C@H](O)[C@H]4C[C@@H](O)CC[C@]4(C)[C@H]3CC[C@@]21C
5.5
C/C(=C\[C@@H](C)[C@H]1C[C@@H](O)[C@@H]2[C@]1(C)CC[C@@H]1[C@@]3(C)CC[C@H](O)C[C@@H]3[C@@H](O)C[C@]12O)[C@H](C)[C@@H](C)CO
6.3
C=C(CC[C@@H](C)[C@H]1C[C@@H](O)[C@@H]2[C@]1(C)CC[C@@H]1[C@@]3(C)CC[C@H](O)C[C@@H]3[C@@H](O)C[C@]12O)[C@H](C)CO
23.9
CC(C)[C@@H](O)CC[C@@H](C)[C@H]1C[C@@H](O)[C@@H]2[C@]1(C)CC[C@@H]1[C@@]3(C)CC[C@H](O)C[C@@H]3[C@@H](O)C[C@]12O
19.4

API: the following record is the query input.
Request: Param item = CC(/C=C/[C@@H](C)[C@H]1C[C@@H](O)[C@H]2[C@@H]3C[C@H](O)[C@H]4C(O)[C@@H](O)CC[C@]4(C)[C@H]3CC[C@@]21C)CCO (stereo not given in full) ; retrieve measured EC50.
Result: 4.2

* * *

Tested on: SK-MEL-2
Experiment: Cytotoxicity against human SK-MEL-2 cells
Format: functional
Settings: read-out: ED50 (the source's name)
Property: EC50; scope: individual compounds
All answers are understood in µg/mL, so give the number only.

CC(/C=C/[C@@H](C)[C@H]1C[C@@H](O)[C@H]2[C@@H]3C[C@H](O)[C@H]4C[C@@H](O)CC[C@]4(C)[C@H]3CC[C@@]21C)CO (stereo not given in full) [CERTONARDOSTEROL H]
6.4
CC(C)[C@@H](O)CC[C@@H](C)[C@H]1C[C@@H](O)[C@@H]2[C@]1(C)CC[C@@H]1[C@@]3(C)CC[C@H](O)C[C@@H]3[C@@H](O)C[C@]12O
12.4
COc1cccc2c1C(=O)c1c(O)c3c(c(O)c1C2=O)C[C@@](O)(C(=O)CO)C[C@@H]3O[C@H]1C[C@H](N)[C@H](O)[C@H](C)O1 [DOXORUBICIN]
0.02
C/C(=C\[C@@H](C)[C@H]1C[C@@H](O)[C@@H]2[C@]1(C)CC[C@@H]1[C@@]3(C)CC[C@H](O)C[C@@H]3[C@@H](O)C[C@]12O)[C@H](C)[C@@H](C)CO [CERTONARDOSTEROL I]
5.3

API: the following record is the query input.
Request: Param item = C=C(CC[C@@H](C)[C@H]1C[C@@H](O)[C@@H]2[C@]1(C)CC[C@@H]1[C@@]3(C)CC[C@H](O)[C@H](O)[C@@H]3[C@@H](O)C[C@]12O)[C@H](C)CO [CERTONARDOSTEROL A] ; retrieve measured EC50.
Result: 4.1
